Biological target: Human immunodeficiency virus type 1 protease (Human immunodeficiency virus 1)
Experiment: Concentration required for inhibitory activity against HIV-1 protease at concentration of 10e-5 M by using TLNFPIS AMC as substrate; No significant activity
measurementName: Activity

| compoundString | measurementName | endpointValue |
| --- | --- | --- |
| CCCCCCCC/C=C\CCCCCCCC(=O)N(CC(=O)N(CC(=O)N(Cc1ccccc1)CC(O)CN(Cc1ccccc1)C(=O)CN(C(=O)CN(C(=O)CCCCCCC/C=C\CCCCCCCC)C(C)C)C(C)C)C(C)C)C(C)C | Activity | No significant activity |
| CC(C)N(CC(=O)N(Cc1ccccc1)CC(O)CN(Cc1ccccc1)C(=O)CN(C(=O)CN(C(=O)OC(C)(C)C)C(C)C)C(C)C)C(=O)CN(C(=O)OC(C)(C)C)C(C)C | Activity | No significant activity |
| CC(C)NCC(=O)N(CC(=O)N(Cc1ccccc1)CC(O)CN(Cc1ccccc1)C(=O)CN(C(=O)CNC(C)C)C(C)C)C(C)C | Activity | No significant activity |
| CC(C)N(CC(=O)N(Cc1ccccc1)CC(O)CN(Cc1ccccc1)C(=O)CN(C(=O)CN(C(=O)CCC(=O)O)C(C)C)C(C)C)C(=O)CN(C(=O)CCC(=O)O)C(C)C | Activity | No significant activity |

Q: Consider the compound CC(C)N(CC(=O)N(Cc1ccccc1)CC(O)CN(Cc1ccccc1)C(=O)CN(C(=O)CN(C(=O)OCc1ccccc1)C(C)C)C(C)C)C(=O)CN(C(=O)OCc1ccccc1)C(C)C and give its recorded Activity.
Result: No significant activity

====

Biological target: Human immunodeficiency virus type 1 protease (Human immunodeficiency virus 1) (UniProt Q72874)
Test: Concentration required for inhibitory activity against HIV-1 protease at concentration of 10e-5 M by using HKARVL-(pNO2)F-EAnLSNH2 as substrate; No significant activity
measurementName: Activity

| compoundString | Activity |
| --- | --- |
| CCCCCCCC/C=C\CCCCCCCC(=O)N(CC(=O)N(CC(=O)N(Cc1ccccc1)CC(O)CN(Cc1ccccc1)C(=O)CN(C(=O)CN(C(=O)CCCCCCC/C=C\CCCCCCCC)C(C)C)C(C)C)C(C)C)C(C)C | No significant activity |
| CC(C)N(CC(=O)N(Cc1ccccc1)CC(O)CN(Cc1ccccc1)C(=O)CN(C(=O)CN(C(=O)CCC(=O)O)C(C)C)C(C)C)C(=O)CN(C(=O)CCC(=O)O)C(C)C | No significant activity |
| CC(C)N(CC(=O)N(Cc1ccccc1)CC(O)CN(Cc1ccccc1)C(=O)CN(C(=O)CN(C(=O)OC(C)(C)C)C(C)C)C(C)C)C(=O)CN(C(=O)OC(C)(C)C)C(C)C | No significant activity |
| CC(C)NCC(=O)N(CC(=O)N(Cc1ccccc1)CC(O)CN(Cc1ccccc1)C(=O)CN(C(=O)CNC(C)C)C(C)C)C(C)C | No significant activity |

Here is another compound to look at.
Q: Note Activity for the compound shown: CC(C)N(CC(=O)N(Cc1ccccc1)CC(O)CN(Cc1ccccc1)C(=O)CN(C(=O)CN(C(=O)OCc1ccccc1)C(C)C)C(C)C)C(=O)CN(C(=O)OCc1ccccc1)C(C)C
Result: No significant activity
